Tested on: COR L88 complex tumor spheroid viability
Assay: Anticancer human tumor COR L88 cell line growth inhibition; active = viability on the fitted dose curve at most 10% of control; inactive = the rest;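 also: compound exposure lasted 7 days before viability readout; percent of DMSO vehicle-treated spheroids = 100%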
Conditions: second compound 0.03 µM; first compound 10 µM
Would you mind answering with one of these outcomes? 1.0 = active, 0.0 = inactive

COc1ccc([C@@H](O)c2cc(-c3ncnc4cc(N5CCOCC5)ccc34)c(F)cc2Cl)nn1 + CC[C@@]1(O)C(=O)OCc2c1cc1n(c2=O)Cc2cc3c(CN(C)C)c(O)ccc3nc2-1 ... 0.0
Cc1cc(C)c(CNC(=O)c2cc(-c3ccc(CN4CCOCC4)cc3)cc3c2cnn3C2CCCC2)c(=O)[nH]1 + CC[C@@]1(O)C(=O)OCc2c1cc1n(c2=O)Cc2cc3c(CN(C)C)c(O)ccc3nc2-1 ... 0.0
[2H]c1nc(C)nc([2H])c1-c1cc(NC[C@@H](C)c2cccc3c(C(=O)NC)ccnc23)ncn1 + CC[C@@]1(O)C(=O)OCc2c1cc1n(c2=O)Cc2cc3c(CN(C)C)c(O)ccc3nc2-1 ... 0.0
CC1COCCN1c1cc(-c2ccnn2C)c2ccnc(-c3ccn[nH]3)c2n1 (stereo unspecified) + CC[C@@]1(O)C(=O)OCc2c1cc1n(c2=O)Cc2cc3c(CN(C)C)c(O)ccc3nc2-1 ... 1.0
CC(C)n1c(=O)n(C)c2cnc3cc(F)c(-c4ccc(OCCCN5CCCCC5)nc4)cc3c21 + CC[C@@]1(O)C(=O)OCc2c1cc1n(c2=O)Cc2cc3c(CN(C)C)c(O)ccc3nc2-1 ... 0.0

Could you now look at the following compound, please?
What did this assay record as the result for COc1cc(C)[nH]c(=O)c1CN1CCc2c(Cl)cc(C(OC)C3COC3)c(Cl)c2C1=O (stereo unspecified) + CC[C@@]1(O)C(=O)OCc2c1cc1n(c2=O)Cc2cc3c(CN(C)C)c(O)ccc3nc2-1 ?
0.0

---

System: COR L88 complex tumor spheroid viability
Assay: Anticancer human tumor COR L88 cell line growth inhibition;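 also: compound exposure lasted 7 days before viability readout; percent of DMSO vehicle-treated spheroids = 100%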
Conditions: second compound 10 µM; first compound 0.316 µM; active compounds read low
Measured quantity: viability, T/C (%)
Response body: numeric value in %, unit text excluded.

Past entries and their recorded results:
[2H]c1nc(C)nc([2H])c1-c1cc(NC[C@@H](C)c2cccc3c(C(=O)NC)ccnc23)ncn1 + Cn1nnc2c(C(N)=O)ncn2c1=O ... 97.7
COc1ccc([C@@H](O)c2cc(-c3ncnc4cc(N5CCOCC5)ccc34)c(F)cc2Cl)nn1 + Cn1nnc2c(C(N)=O)ncn2c1=O ... 92
COc1cc(C)[nH]c(=O)c1CN1CCc2c(Cl)cc(C(OC)C3COC3)c(Cl)c2C1=O (stereo unspecified) + Cn1nnc2c(C(N)=O)ncn2c1=O ... 48.8
CC1COCCN1c1cc(-c2ccnn2C)c2ccnc(-c3ccn[nH]3)c2n1 (stereo unspecified) + Cn1nnc2c(C(N)=O)ncn2c1=O ... 29.4
Cc1cc(C)c(CNC(=O)c2cc(-c3ccc(CN4CCOCC4)cc3)cc3c2cnn3C2CCCC2)c(=O)[nH]1 + Cn1nnc2c(C(N)=O)ncn2c1=O ... 88.5

Please tell me: viability, T/C of CC(C)n1c(=O)n(C)c2cnc3cc(F)c(-c4ccc(OCCCN5CCCCC5)nc4)cc3c21 + Cn1nnc2c(C(N)=O)ncn2c1=O , system COR L88 complex tumor spheroid viability?
94.5

---

System: COR L88 complex tumor spheroid viability
Assay: Anticancer human tumor COR L88 cell line growth inhibition;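 also: compound exposure lasted 7 days before viability readout; percent of DMSO vehicle-treated spheroids = 100%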
Details: second compound 1 µM; first compound 3 µM; active compounds read low
A collection of compounds and their measured viability, T/C

As a guide, the following entries are already answered.
CNCc1ccc(-c2cc(-c3nc(-c4ccc(S(=O)(=O)C(C)C)cc4)cnc3N)on2)cc1 + Cn1nnc2c(C(N)=O)ncn2c1=O ... 12.9%
Cc1sc2c(c1C)C(c1ccc(Cl)cc1)=NC(CC(=O)Nc1ccc(O)cc1)c1nnc(C)n1-2 (centres undefined) + Cn1nnc2c(C(N)=O)ncn2c1=O ... 22.4%
Cn1ncnc1[C@H]1c2n[nH]c(=O)c3cc(F)cc(c23)N[C@@H]1c1ccc(F)cc1 + Cn1nnc2c(C(N)=O)ncn2c1=O ... 36.3%

Next compound, please.
Given the compound O=C(c1cc(Cc2n[nH]c(=O)c3ccccc23)ccc1F)N1CCN(C(=O)C2CC2)CC1 + Cn1nnc2c(C(N)=O)ncn2c1=O , what is its reported viability, T/C?
78.4%
